Target: NPFF-R2 (Homo sapiens, UniProt Q9Y5X5)
Construct: host or cells: CHO-K1 (AequoScreen, co-expressing aequorin)
Sequence (Q9Y5X5 whole entry): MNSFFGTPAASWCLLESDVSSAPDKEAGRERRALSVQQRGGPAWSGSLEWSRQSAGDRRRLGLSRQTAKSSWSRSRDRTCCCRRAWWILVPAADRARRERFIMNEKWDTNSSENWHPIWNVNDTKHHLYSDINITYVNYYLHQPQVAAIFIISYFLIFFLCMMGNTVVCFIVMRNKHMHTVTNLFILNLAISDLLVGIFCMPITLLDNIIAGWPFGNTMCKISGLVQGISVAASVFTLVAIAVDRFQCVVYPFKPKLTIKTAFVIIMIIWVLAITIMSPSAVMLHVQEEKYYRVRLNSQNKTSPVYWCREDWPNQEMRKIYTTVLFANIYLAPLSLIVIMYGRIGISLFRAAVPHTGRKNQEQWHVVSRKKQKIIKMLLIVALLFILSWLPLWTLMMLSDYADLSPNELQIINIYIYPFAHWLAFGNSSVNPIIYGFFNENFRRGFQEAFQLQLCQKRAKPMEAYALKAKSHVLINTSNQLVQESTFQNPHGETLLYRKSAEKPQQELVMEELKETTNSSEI
Assay: Competitive binding, [^125I]-1DMe, membranes of CHO-K1 cells with NPFF-R2
No end group written: not given here.
measuredEndpoint: pKi
Units for pKi: none; it is -log10 of a concentration expressed in mol/L.

(Q) Recall the reported pKi of SRAHQHSMETRTPDINPAWYTGRGIRPVGRF-NH2 [PrRP31, prolactin-releasing peptide 31, reference compound] when tested on NPFF-R2 (Homo sapiens, UniProt Q9Y5X5).
(A) 7.57
